test system: mice; assay: Study of the acute toxicity (oral, mice); format: in vivo
readout-name: LD0 (maximum dose which does not cause any mortality in 8 days) (mg/kg)
Quick reminder: number only, in mg/kg, skip the unit.

Looking for the measured LD0 (maximum dose which does not cause any mortality in 8 days) of CCCNCC(O)COc1ccccc1C(=O)CCc1cccc2[nH]ccc12 (stereo not drawn) , can you help? 100

---
# LD0 (maximum dose which does not cause any mortality in 8 days) lookup, item CCCNCC(O)COc1ccccc1C(=O)CCc1cccc2c1CC(=O)N2 (stereo not drawn) 100

Also CC(C)(C)NCC(O)COc1ccccc1C(=O)CCc1cccc2[nH]ccc12 (stereo not drawn) , if possible. 100
